test-target: T1, human IL-10 receptor (hIL-10R alpha and beta chains) on HEK-Blue IL-10 reporter cells (human, UniProt Q13651 22-578; Q08334 20-325)
T1 sequence 1: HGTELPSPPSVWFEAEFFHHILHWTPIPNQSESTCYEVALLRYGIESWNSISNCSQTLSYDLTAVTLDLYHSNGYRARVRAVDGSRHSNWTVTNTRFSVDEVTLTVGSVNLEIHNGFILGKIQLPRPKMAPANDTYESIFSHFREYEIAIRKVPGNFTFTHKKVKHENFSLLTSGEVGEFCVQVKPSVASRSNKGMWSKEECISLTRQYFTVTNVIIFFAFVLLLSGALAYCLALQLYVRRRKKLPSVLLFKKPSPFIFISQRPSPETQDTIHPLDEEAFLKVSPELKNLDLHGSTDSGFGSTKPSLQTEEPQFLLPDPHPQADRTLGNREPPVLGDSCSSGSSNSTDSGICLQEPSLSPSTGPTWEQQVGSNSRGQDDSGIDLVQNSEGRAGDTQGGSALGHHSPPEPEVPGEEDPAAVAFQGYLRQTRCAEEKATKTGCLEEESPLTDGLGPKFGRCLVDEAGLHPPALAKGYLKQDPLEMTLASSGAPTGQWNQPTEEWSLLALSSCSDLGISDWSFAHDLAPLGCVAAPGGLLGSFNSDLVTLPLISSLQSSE
T1 sequence 2: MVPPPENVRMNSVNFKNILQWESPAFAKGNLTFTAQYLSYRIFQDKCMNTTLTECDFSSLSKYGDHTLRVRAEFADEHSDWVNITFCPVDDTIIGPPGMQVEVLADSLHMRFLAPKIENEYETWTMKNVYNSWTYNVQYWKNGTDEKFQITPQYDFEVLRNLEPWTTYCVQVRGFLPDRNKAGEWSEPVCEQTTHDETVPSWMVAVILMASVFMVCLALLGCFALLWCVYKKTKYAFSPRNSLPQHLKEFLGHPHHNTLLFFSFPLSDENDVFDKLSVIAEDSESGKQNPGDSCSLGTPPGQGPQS
assay-procedure: cell-based or functional assay
Listed below: Abs 630 (25 nM) values for each entry.

Record excerpt, results attached:
{"columns": ["binder", "Abs 630 (25 nM)"],
 "data": [
  ["IL10R binding molecule of SEQ ID NO: 293 (bispecific antibody) QVQLQESGGGSVQAGGSLRLSCGASGYTYSSYCMGWFRQVPGKEREGVAVIDSDGSTSYADSVKGRFTISKDNGKNTLYLQMNSLKPEDTAMYYCAADLGHYRPPCGVLYLGMDYWGKGTQVTVSSGGGSQVQLQESGGGSVQAGGSLRLSCAASRYTYNSYCMGWFRQAPGKEREGVATIDSDGMTRYADSVKGRFTISKDNAKNTLYLQMNSLKPEDTAMYYCAADADCTIAAMTTNPLGQGTQVTVSSASHHHHHH", "0.54 Abs 630"],
  ["IL10R binding molecule of SEQ ID NO: 316 (bispecific antibody) QVQLQESGGGSVQAGGSLRLSCAASGYTYSSYCMGWFRQAPGKEREGVAHIDSDGSTSYADSVKGRFTISKDNAKNTLYLQMNSLKPEDTAMYYCAADPIPGPGYCDGGPNKYWGQGTQVTVSSGGGSQVQLQESGGGSVQAGGSLRLSCTVSGYTYSSNCMGWFRQAPGKEREGVATIYTGGGNTYYADSVKGRFTISQDNAKNTVYLQMNNLKPEDTAMYYCAAEPLSRVYGGSCPTPTFDYWGQGTQVTVSSASHHHHHH", "0.48 Abs 630"]
]}

[in] Would you mind telling me what Abs 630 (25 nM) value was observed for IL10R binding molecule of SEQ ID NO: 277 (bispecific antibody) QVQLQESGGGSVQAGGSLRLSCAVSGYAYSTYCMGWFRQAPGKEREGVAAIDSGGSTSYADSVKGRFTISKDNAKNTLYLRMNSLKPEDTAMYYCAAVPPPPDGGSCLFLGPEIKVSKADFRYWGQGTQVTVSSGGGSQVQLQESGGGSVQAGGSLRLSCAASGYTYSSGCMGWFRQAPGKEREAVAAINSDGSTSYADSVKGRFTISKDNAKNTLYLQMNSLKPEDTAMYYCAAEPYCSGGYPRWSVAEFGYWGQGTQVTVSSASHHHHHH ?
[out] 1.19 Abs 630

[in] I have this binder here, IL10R binding molecule of SEQ ID NO: 314 (bispecific antibody) QVQLQESGGGSVQAGGSLRLSCAASGYTYSSYCMGWFRQAPGKEREGVAHIDSDGSTSYADSVKGRFTISKDNAKNTLYLQMNSLKPEDTAMYYCAADPIPGPGYCDGGPNKYWGQGTQVTVSSGGGSQVQLQESGGGSVQAGGSLRLSCAASGYTYSMYCMGWFRQAPGKEREGVAQINSDGSTSYADSVKGRFTISKDNAKNTLYLQMNSLKPEDTAMYYCAADSRVYGGSWYERLCGPYTYEYNYWGQGTQVTVSSASHHHHHH , and I need its recorded Abs 630 (25 nM).
[out] 0.49 Abs 630

[in] Give the measured Abs 630 (25 nM) of IL10R binding molecule of SEQ ID NO: 278 (bispecific antibody) QVQLQESGGGSVQAGGSLRLSCAVSGYAYSTYCMGWFRQAPGKEREGVAAIDSGGSTSYADSVKGRFTISKDNAKNTLYLRMNSLKPEDTAMYYCAAVPPPPDGGSCLFLGPEIKVSKADFRYWGQGTQVTVSSGGGSQVQLQESGGGSVQAGGSLRLSCAASGYTYSSYCMGWFRQAPGKEREGVAHIDSDGSTSYADSVKGRFTISKDNAKNTLYLQMNSLKPEDTAMYYCAADPIPGPGYCDGGPNKYWGQGTQVTVSSASHHHHHH .
[out] 1.61 Abs 630

[in] // lookup Abs 630 (25 nM) for IL10R binding molecule of SEQ ID NO: 324 (bispecific antibody) QVQLQESGGGSVQAGGSLRLSCAASRYTYNSYCMGWFRQAPGKEREGVATIDSDGMTRYADSVKGRFTISKDNAKNTLYLQMNSLKPEDTAMYYCAADADCTIAAMTTNPLGQGTQVTVSSGGGSQVQLQESGGGSVQAGGSLRLSCGASGYTYSSYCMGWFRQVPGKEREGVAVIDSDGSTSYADSVKGRFTISKDNGKNTLYLQMNSLKPEDTAMYYCAADLGHYRPPCGVLYLGMDYWGKGTQVTVSSASHHHHHH
[out] 0.61 Abs 630

[in] If you can, please state the reported Abs 630 (25 nM) value of IL10R binding molecule of SEQ ID NO: 342 (bispecific antibody) QVQLQESGGGSVQAGGSLRLSCAASGYSYSSYCMGWFRQAPGKEREGVATIDSDGMTRYADSVKGRFTISKDNAKNTLYLQMNSLKPEDTAMYYCAAPLYDCDSGAVGRNPPYWGQGTQVTVSSGGGSQVQLQESGGGSVQAGGSLRLSCAASGYTYSMYCMGWFRQAPGKEREGVAQINSDGSTSYADSVKGRFTISKDNAKNTLYLQMNSLKPEDTAMYYCAADSRVYGGSWYERLCGPYTYEYNYWGQGTQVTVSSASHHHHHH .
[out] 0.45 Abs 630

[in] Which value of Abs 630 (25 nM) has been reported for wild-type human IL-10 (Recombinant Animal-Free Human IL-10, Shenandoah Biotechnology) (ligand) SPGQGTQSENSCTHFPGNLPNMLRDLRDAFSRVKTFFQMKDQLDNLLLKESLLEDFKGYLGCQALSEMIQFYLEEVMPQAENQDPDIKAHVNSLGENLKTLRLRLRRCHRFLPCENKSKAVEQVKNAFNKLQEKGIYKAMSEFDIFINYIEAYMTMKIRN in the records?
[out] 2.08 Abs 630

[in] What value of measured Abs 630 (25 nM) is listed for IL10R binding molecule of SEQ ID NO: 288 (bispecific antibody) QVQLQESGGGSVQAGGSLRLSCTVSGYTYSSNCMGWFRQAPGKEREGVATIYTGGGNTYYADSVKGRFTISQDNAKNTVYLQMNNLKPEDTAMYYCAAEPLSRVYGGSCPTPTFDYWGQGTQVTVSSGGGSQVQLQESGGGSVEAGGSLRLSCAASGYTHSSYCMGWFRQAPGKEREGVAAIDVDGSTTYADSVKGRFTISKDNAKNTLYLQMNSLKPEDTGMYYCAAEFADCSSNYFLPPGAVRYWGQGTQVTVSSASHHHHHH ?
[out] 0.5 Abs 630
